Below, each entry is listed with its recorded koff.
Target: human NGF (Homo sapiens, UniProt P01138)
Sequence (P01138 122-241): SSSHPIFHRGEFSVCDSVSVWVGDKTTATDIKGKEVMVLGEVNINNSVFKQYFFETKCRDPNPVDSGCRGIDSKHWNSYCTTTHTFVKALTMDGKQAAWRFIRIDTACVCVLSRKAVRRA
Assay: BIAcore screening assay of Fab library clones (koff)
Assay type: binding
Settings: Table 3: light chain library clones paired with 8L2 heavy chain
Protocol: Small scale expression in 96 wells plates was optimized for screening Fab libraries. […] Affinities of anti-NGF Fabs and monoclonal antibodies were determined using the BIAcore300™ surface plasmon resonance (SPR) system (BIAcore, INC, Piscaway N.J.). […] A screening BIAcore assay was optimized to determine the affinity of Fab clones from libraries. […] Clones showing improved (slower) koff values were expressed at large scale and full kinetic parameters, kon and koff, were determined on purified protein. […]
measure: koff

>  <molecule>
L129: light chain library clone, CDRL1 SEQ ID NO:18, CDRL2 SEQ ID NO:19 (antibody, V domains shown) VH: QVQLQESGPGLVKPSETLSLTCTVSGFSLIGYDINWIRQPPGKGLEWIGMIWGDGTTDYNSALKSRVTISKDTSKNQFSLKLSSVTAADTAVYYCARGGYYYGTSYYFDYWGQGTLVTVS VL: DIQMTQSPSSLSASVGDRVTITCRASQSISNNLNWYQQKPGKAPKLLIYYTSRFHSGVPSRFSGSGSGTDFTFTISSLQPEDIATYYCQQSKTLPYTFGQGTKLEIKRT

>  <measure>
koff

>  <measurement>
0.00045 s⁻¹

$$$$
>  <molecule>
L208: light chain library clone, CDRL1 SEQ ID NO:20, CDRL2 SEQ ID NO:21 (antibody, V domains shown) VH: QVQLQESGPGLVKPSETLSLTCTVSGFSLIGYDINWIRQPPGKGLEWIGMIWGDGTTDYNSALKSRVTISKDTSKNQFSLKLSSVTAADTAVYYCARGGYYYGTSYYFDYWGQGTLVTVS VL: DIQMTQSPSSLSASVGDRVTITCRASQYISNHLNWYQQKPGKAPKLLIYYTSRFHSGVPSRFSGSGSGTDFTFTISSLQPEDIATYYCQQSKTLPYTFGQGTKLEIKRT

>  <measure>
koff

>  <measurement>
0.00046 s⁻¹

$$$$
>  <molecule>
L81: light chain library clone, CDRL1 SEQ ID NO:24, CDRL2 SEQ ID NO:25 (antibody, V domains shown) VH: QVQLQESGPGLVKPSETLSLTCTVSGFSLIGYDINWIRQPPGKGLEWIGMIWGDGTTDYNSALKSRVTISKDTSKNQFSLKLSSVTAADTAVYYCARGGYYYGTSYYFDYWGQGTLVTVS VL: DIQMTQSPSSLSASVGDRVTITCRAFQAISNQLNWYQQKPGKAPKLLIYYISRFHTGVPSRFSGSGSGTDFTFTISSLQPEDIATYYCQQSKTLPYTFGQGTKLEIKRT

>  <measure>
koff

>  <measurement>
0.00074 s⁻¹

$$$$
>  <molecule>
L97: light chain library clone, CDRL1 SEQ ID NO:22, CDRL2 SEQ ID NO:23 (antibody, V domains shown) VH: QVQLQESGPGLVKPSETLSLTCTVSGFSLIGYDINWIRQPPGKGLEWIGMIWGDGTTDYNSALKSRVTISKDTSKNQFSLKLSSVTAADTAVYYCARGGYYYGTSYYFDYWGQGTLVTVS VL: DIQMTQSPSSLSASVGDRVTITCRASQSISNQLNWYQQKPGKAPKLLIYYVSRFHSGVPSRFSGSGSGTDFTFTISSLQPEDIATYYCQQSKTLPYTFGQGTKLEIKRT

>  <measure>
koff

>  <measurement>
0.00056 s⁻¹

$$$$
